# SYSTEM: GLP-1 receptor (Homo sapiens, UniProt P43220)
# Sequence (P43220 24-463): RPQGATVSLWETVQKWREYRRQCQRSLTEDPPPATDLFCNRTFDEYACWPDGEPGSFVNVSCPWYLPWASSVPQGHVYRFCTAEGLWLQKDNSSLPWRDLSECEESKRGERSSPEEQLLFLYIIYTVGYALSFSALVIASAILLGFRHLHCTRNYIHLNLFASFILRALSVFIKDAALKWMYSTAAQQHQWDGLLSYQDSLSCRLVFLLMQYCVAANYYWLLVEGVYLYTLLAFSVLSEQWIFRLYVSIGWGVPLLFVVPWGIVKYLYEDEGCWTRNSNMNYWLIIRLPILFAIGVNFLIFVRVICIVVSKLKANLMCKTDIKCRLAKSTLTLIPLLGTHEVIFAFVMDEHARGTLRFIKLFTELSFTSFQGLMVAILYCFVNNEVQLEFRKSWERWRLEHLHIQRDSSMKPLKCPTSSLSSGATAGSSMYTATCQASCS
# PROCEDURE_SUMMARY: FLIPR calcium flux assay, agonist format, GLP-1
# Type: cell-based
# STUDY_CONDITIONS: 1 μM, Emax of reference ligand Glucagon as 100%
VALUE_TYPE: % Activation Agonist GLP-1 (%)
Please state the figure in %; there is no need to write the unit.

The compound listed as CN(Cc1ccccc1)C1CCN(C(C(=O)NCCOc2ccc(C(F)(F)F)cc2)c2nc(-c3ccc(C(F)(F)F)cc3)no2)CC1 (centres unmarked) [Compound 24] has a reported % Activation Agonist GLP-1 of 5.9

The compound listed as C[C@@H]1CCN(C(C(=O)NCC[C@@H](Oc2ccc(C(F)(F)F)cc2)c2ccccc2)c2nc(-c3ccc(C(F)(F)F)cc3)no2)C[C@@H]1COc1ccc(C(F)(F)F)cc1 (some centres unmarked) [Compound 18] has a reported % Activation Agonist GLP-1 of 20.6

The compound listed as CC(C(=O)N(C)CC[C@H](Oc1ccc(C(F)(F)F)cc1)c1ccccc1)c1ccc(CC2CCCC2=O)cc1 (some centres unmarked) [Compound 29b] has a reported % Activation Agonist GLP-1 of 6.2

The compound listed as CC(C)Cc1ccc(C2(C(=O)N(C)CC[C@H](Oc3ccc(C(F)(F)F)cc3)c3ccccc3)CCC2)cc1 [Compound 30b] has a reported % Activation Agonist GLP-1 of −3.4

The compound listed as CC(C)Cc1ccc(CC(=O)N(C)CC[C@H](Oc2ccc(C(F)(F)F)cc2)c2ccccc2)cc1 [Compound 32b] has a reported % Activation Agonist GLP-1 of −1.8

The compound listed as O=C(Cc1nc(-c2ccc(C(F)(F)F)cc2)no1)NCC[C@@H](Oc1ccc(C(F)(F)F)cc1)c1ccccc1 [Compound 23] has a reported % Activation Agonist GLP-1 of 11.9

The compound listed as C[C@H]1CCN(C(C(=O)NCCOc2ccc(C(F)(F)F)cc2)c2nc(-c3ccc(C(F)(F)F)cc3)no2)C[C@@H]1COc1ccc(C(F)(F)F)cc1 (some centres unmarked) [Compound 20] has a reported % Activation Agonist GLP-1 of 7.5

The compound listed as O=C(NCC[C@@H](Oc1ccc(C(F)(F)F)cc1)c1ccccc1)C(c1nc(-c2ccc(C(F)(F)F)cc2)no1)N1CCC[C@@H](COc2ccc(C(F)(F)F)cc2)C1 (some centres unmarked) [Compound 19] has a reported % Activation Agonist GLP-1 of 6.5

The compound listed as CC(C)Cc1ccc(C2(C(=O)N(C)CC[C@@H](Oc3ccc(C(F)(F)F)cc3)c3ccccc3)CCC2)cc1 [Compound 30a] has a reported % Activation Agonist GLP-1 of −3.7

The compound listed as CC(C(=O)N(C)CC[C@@H](Oc1ccc(C(F)(F)F)cc1)c1ccccc1)c1ccc(C(F)(F)F)cc1 (some centres unmarked) [Compound 33a] has a reported % Activation Agonist GLP-1 of 0.9

The compound listed as C[C@H]1CCN(C(C(=O)NCC[C@@H](Oc2ccc(C(F)(F)F)cc2)c2ccccc2)c2nc(-c3ccc(C(F)(F)F)cc3)no2)C[C@@H]1COc1ccc(C(F)(F)F)cc1 (some centres unmarked) [Compound 17] has a reported % Activation Agonist GLP-1 of 9.4
